Numbers sourced from ChEMBL document CHEMBL4406856.

Listed here: items and their measured pIC50.
# System: MRC5
# experiment: Cytotoxicity against human MRC5 cells assessed as reduction in cell viability incubated for 72 hrs by MTT assay
# Format: cell-based
# assay_conditions: MRC5, 72 h
pIC50: −log10 of the molar value.

[
  {
    "compound_structure_string": "NC(=O)c1csc([C@@H]2O[C@H](CO)[C@H](N)[C@H]2O)n1",
    "pIC50": "< 4.00"
  },
  {
    "compound_structure_string": "[N-]=[N+]=N[C@H]1[C@H](O)[C@@H](CO)O[C@H]1c1nc(C(N)=O)cs1",
    "pIC50": "< 4.00"
  },
  {
    "compound_structure_string": "NC(=O)c1csc([C@@H]2O[C@H](CO)[C@@H](O)[C@@H]2N)n1",
    "pIC50": "< 4.00"
  }
]
